tested on: Klebsiella pneumoniae; test: Antibacterial activity against Klebsiella pneumoniae ATCC 700603 after 12 to 18 hrs; assay type: functional
attributeMeasured: MIC (µg/mL)
Numbers only, in µg/mL.

| compound | MIC [µg/mL] |
| --- | --- |
| C[C@H]1O[C@@H](O[C@@H]2[C@@H](O)[C@H](N)C[C@H](N)[C@H]2O[C@H]2O[C@H](CN)[C@@H](O)[C@H](O)[C@H]2N)[C@H](O)[C@@H](O)[C@@H]1N | 16 |

For every item below, please supply its MIC.
1. NCC[C@H](O)C(=O)N[C@@H]1C[C@H](N)[C@@H](O[C@H]2O[C@H](CN)[C@@H](O)[C@H](O)[C@H]2N)[C@H](O[C@@H]2O[C@H](CO)[C@H](O)[C@H]2O)[C@H]1O [BUTIROSIN A]
2. NC[C@@H]1O[C@H](O[C@H]2[C@@H](O)[C@H](O[C@@H]3[C@@H](O)[C@H](N)C[C@H](N)[C@H]3O[C@H]3O[C@H](CN)[C@@H](O)[C@H](O)[C@H]3N)O[C@@H]2CO)[C@H](N)[C@@H](O)[C@@H]1O [FRAMYCETIN]
3. C[C@H]1O[C@@H](O[C@@H]2[C@@H](OCCN)[C@H](NC(=O)[C@@H](O)CCN)C[C@H](N)[C@H]2O[C@H]2O[C@H](CN)[C@@H](O)[C@H](O)[C@H]2N)[C@H](O)[C@@H](O)[C@@H]1N

1. 1
2. 16
3. 2

Using the record for C[C@H]1O[C@@H](O[C@@H]2[C@@H](O)[C@H](NC(=O)[C@@H](O)CCN)C[C@H](N)[C@H]2O[C@H]2O[C@H](CN)[C@@H](O)[C@H](O)[C@H]2N)[C@H](O)[C@@H](O)[C@@H]1N , report its MIC.
1
